# Tgt: human F508del-CFTR (Homo sapiens, UniProt P13569, DEL508-508)
# Sequence (P13569 with tags, fused parts or gaps DEL508-508): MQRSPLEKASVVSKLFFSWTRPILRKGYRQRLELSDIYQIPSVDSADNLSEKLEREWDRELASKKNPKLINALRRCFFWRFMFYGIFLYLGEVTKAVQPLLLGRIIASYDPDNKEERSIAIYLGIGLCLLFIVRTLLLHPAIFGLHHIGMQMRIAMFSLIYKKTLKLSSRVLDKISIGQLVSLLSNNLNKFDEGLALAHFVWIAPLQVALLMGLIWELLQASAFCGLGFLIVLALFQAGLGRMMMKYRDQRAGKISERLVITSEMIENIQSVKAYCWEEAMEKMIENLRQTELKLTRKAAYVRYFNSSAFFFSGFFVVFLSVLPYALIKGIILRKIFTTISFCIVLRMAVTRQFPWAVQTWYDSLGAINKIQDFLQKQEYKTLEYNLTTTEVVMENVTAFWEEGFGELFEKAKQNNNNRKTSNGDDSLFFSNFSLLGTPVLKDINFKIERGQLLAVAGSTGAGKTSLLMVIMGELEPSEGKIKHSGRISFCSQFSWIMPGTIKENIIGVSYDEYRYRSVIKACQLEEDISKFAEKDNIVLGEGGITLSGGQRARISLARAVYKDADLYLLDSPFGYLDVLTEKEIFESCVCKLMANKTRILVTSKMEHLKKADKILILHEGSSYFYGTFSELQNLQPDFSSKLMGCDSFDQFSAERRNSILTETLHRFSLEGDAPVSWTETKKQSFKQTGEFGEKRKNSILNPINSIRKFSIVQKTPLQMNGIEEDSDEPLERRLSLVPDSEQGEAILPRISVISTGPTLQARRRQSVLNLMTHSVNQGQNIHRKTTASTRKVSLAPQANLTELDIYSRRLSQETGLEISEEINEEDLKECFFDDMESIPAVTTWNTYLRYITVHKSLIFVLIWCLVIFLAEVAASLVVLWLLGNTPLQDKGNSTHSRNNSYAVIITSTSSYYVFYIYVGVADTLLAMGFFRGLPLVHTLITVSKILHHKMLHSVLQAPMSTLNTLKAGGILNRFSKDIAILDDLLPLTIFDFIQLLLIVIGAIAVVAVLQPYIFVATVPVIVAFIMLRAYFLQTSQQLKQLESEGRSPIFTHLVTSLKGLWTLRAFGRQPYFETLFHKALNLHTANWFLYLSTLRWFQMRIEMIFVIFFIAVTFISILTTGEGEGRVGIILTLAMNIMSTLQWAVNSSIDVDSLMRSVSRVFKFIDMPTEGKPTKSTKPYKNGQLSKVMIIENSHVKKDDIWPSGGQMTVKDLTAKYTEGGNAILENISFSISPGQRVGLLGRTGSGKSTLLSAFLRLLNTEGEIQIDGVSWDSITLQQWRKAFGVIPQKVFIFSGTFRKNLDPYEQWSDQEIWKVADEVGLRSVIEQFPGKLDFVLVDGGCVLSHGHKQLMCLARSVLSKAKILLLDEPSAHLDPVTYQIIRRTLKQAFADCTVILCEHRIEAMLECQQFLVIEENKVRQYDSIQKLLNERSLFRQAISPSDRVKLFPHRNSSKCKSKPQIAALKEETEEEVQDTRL
# Test: F508del-CFTR cell surface expression (corrector activity), DiscoveRx ß-galactosidase complementation chemiluminescence assay in recombinant U2OS cell line;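 note: U2OS cells co-expressing ProLink-tagged F508del-CFTR and a membrane-anchored enzyme acceptor, where more surface CFTR restores β-galactosidase activity measured by chemiluminescence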
# Experimental Setup: U2OS, in relation to the Emax of the corrector lumacaftor (=100%); U2OS cell line, 16h compound incubation; arithmetic mean values
Measure: Emax (%)

Some compounds with recorded Emax:
1. CC(C)C[C@H]1C(=O)N(C)C2(CC2)C(=O)N[C@H](Cc2ccccc2)COc2cnc3ccc(F)cc3c2C(=O)N[C@H](C(=O)NCCc2cccc(C#N)c2)CC(=O)N1C    193
2. COc1cccc(CCNC(=O)[C@@H]2CC(=O)N(C)[C@@H](CC(C)C)C(=O)N3CCN(C(C)C)C[C@@H]3C(=O)N[C@H](Cc3ccccc3)COc3ccc4nc(C)oc4c3C(=O)N2)c1    262

[1] CC(C)C[C@H]1C(=O)N(C)C2(CC2)C(=O)N[C@H](Cc2ccccc2)COc2cnc3ccc(F)cc3c2C(=O)N[C@H](C(=O)NCCc2cnn(C3CC3)c2)CC(=O)N1C
[2] CN1C(=O)C[C@@H](C(=O)NCCc2ccc3c(c2)OCO3)NC(=O)c2c(ccc3ccccc23)OC[C@@H](Cc2ccccc2)NC(=O)CN(CC[C@@H]2CCCCO2)C(=O)[C@@H]1CC1CC1
[3] CN1C(=O)C[C@@H](C(=O)NCCc2ccc3c(c2)OCO3)NC(=O)c2c(ccc3ccccc23)OC[C@@H](Cc2ccccc2)NC(=O)CN(C[C@@H]2CCCCO2)C(=O)[C@@H]1CC1CCC1
Query string: // sort entries: Emax, high to low Please write the labels in the order that was asked for.
Result string: 1, 2, 3
(1: 381%, 2: 171%, 3: 116%)
